Target: CBP recombinant proteins (Homo sapiens (Human), UniProt Q92793)
Sequence (Q92793 whole entry): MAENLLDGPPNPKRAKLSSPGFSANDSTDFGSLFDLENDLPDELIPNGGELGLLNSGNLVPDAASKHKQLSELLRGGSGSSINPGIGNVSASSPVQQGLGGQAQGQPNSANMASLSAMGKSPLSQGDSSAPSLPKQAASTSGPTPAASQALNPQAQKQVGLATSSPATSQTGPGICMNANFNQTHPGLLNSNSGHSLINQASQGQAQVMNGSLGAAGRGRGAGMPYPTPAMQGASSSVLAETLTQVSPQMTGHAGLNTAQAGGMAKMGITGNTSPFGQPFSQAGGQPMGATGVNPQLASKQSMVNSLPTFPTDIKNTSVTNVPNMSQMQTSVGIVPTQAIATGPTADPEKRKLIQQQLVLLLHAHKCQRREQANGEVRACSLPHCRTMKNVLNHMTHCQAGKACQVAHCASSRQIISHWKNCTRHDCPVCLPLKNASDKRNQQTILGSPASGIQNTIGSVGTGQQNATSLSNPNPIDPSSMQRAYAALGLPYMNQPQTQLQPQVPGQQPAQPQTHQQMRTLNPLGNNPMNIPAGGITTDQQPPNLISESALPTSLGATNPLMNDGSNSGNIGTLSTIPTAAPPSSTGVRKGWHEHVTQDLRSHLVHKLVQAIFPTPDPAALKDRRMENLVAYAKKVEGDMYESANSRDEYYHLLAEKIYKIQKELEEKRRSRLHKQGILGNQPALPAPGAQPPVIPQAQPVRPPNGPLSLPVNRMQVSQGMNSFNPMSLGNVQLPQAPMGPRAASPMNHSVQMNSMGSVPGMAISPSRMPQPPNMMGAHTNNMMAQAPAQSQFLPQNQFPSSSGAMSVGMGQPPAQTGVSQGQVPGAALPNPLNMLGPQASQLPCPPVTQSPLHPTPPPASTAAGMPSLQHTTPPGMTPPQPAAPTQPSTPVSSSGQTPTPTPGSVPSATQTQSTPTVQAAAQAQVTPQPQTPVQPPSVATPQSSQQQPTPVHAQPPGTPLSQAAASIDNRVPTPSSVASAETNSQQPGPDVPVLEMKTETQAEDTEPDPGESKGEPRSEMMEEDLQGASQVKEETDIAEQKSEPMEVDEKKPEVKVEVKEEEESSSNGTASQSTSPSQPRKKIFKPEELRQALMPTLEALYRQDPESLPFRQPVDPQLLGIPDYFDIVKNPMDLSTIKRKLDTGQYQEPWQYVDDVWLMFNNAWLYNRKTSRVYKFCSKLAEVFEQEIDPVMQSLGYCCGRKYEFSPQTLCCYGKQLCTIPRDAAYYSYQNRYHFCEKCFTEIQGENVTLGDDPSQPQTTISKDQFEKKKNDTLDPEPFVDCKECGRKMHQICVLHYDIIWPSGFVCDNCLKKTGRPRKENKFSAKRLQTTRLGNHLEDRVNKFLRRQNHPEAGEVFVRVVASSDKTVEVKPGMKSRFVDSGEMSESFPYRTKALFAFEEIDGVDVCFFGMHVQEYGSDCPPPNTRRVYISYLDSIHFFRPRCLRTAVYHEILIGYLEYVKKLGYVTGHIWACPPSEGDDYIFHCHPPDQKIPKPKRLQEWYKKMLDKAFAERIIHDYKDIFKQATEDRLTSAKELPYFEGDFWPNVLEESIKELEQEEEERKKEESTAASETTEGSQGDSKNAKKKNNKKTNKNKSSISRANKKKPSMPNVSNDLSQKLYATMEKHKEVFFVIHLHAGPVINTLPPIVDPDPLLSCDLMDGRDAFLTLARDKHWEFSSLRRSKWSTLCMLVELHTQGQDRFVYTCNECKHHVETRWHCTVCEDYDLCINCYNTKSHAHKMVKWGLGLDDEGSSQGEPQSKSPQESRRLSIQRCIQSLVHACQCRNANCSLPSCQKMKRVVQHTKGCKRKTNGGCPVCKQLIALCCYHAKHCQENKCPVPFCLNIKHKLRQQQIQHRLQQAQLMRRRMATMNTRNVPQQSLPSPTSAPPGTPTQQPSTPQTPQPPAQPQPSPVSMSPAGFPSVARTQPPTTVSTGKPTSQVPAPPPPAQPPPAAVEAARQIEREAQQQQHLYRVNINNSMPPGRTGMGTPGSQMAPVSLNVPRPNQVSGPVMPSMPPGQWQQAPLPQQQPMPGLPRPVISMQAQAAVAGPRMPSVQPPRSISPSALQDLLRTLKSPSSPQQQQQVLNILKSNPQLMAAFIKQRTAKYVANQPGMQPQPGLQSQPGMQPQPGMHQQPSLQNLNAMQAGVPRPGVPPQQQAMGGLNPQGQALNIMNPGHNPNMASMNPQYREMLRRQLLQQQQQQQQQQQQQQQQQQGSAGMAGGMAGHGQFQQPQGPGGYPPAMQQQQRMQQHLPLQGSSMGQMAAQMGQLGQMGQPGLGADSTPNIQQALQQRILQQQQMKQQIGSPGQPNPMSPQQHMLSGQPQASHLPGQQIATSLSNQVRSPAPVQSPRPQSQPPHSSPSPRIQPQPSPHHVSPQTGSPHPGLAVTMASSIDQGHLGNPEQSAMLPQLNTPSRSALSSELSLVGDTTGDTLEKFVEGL
Assay: Competitive HTRF assay for affinity to CBP recombinant protein
Settings: His-tagged CBP 5 nM, biotin-labeled ligand 50 nM, 1% DMSO
Protocol: The affinity of the compounds synthesized in the present patert to the CBP recombinant proteins was determined by competitive HTRF method. His-tagged cyclic adenosine monophosphate response element binding protein (CREB-binding protein, CBP) was expressed in Escherichia coli system and further purified. CBP biotinylated ligands were all self-made. […]
Task for the reader: assign each of the following compounds its reported IC50.
Respond numerically; units are nM and should not be typed.

Q) Form field: reported IC50 of `CNC(=O)c1cc2cccnc2c(N2CCCc3cc(C4=CCN(S(C)(=O)=O)CC4)c(C(F)F)cc32)n1`
A) 8.5

Q) Form field: reported IC50 of `CNC(=O)c1ccc2c(c1)CCCN2c1nc(C(=O)NC)cc2ccccc12`
A) 100

Q) Form field: reported IC50 of `CNC(=O)c1cc2cc(N3CCOC3=O)ccc2c(N2CCCc3cc(-c4cnn(C)c4)c(C(F)F)cc32)n1`
A) 4.2

Q) Form field: reported IC50 of `CNC(=O)c1cc2cccnc2c(N2CCCc3cc(-c4cnn(C5CN(C)C5)c4)c(C(F)F)cc32)n1`
A) 11

Q) Form field: reported IC50 of `Cn1cc(-c2cc3c(cc2C(F)F)N(c2nc(C(N)=O)cc4ccccc24)CCC3)cn1`
A) 245
